target: Δ49N-hChoKα (Homo sapiens); construct: cDNA fragment 362-1534, corresponding to aminoacids 50 457; GST (N, cleaved yes); PreScission Protease recognition site (N); made in house; host or cells: Escherichia coli BL21pLysS (DE3); assay: Biochemical kinase inhibition assay (Kinase-Glo luminescent) on Δ49N-hChoKα; details: recombinant Δ49N-hChoKα 2.2 nM, ATP 5 μM, choline 5 μM, 60 min rt; read-out: ChoKα IC50
Sequence (P35790 50-439 isoform P35790-2): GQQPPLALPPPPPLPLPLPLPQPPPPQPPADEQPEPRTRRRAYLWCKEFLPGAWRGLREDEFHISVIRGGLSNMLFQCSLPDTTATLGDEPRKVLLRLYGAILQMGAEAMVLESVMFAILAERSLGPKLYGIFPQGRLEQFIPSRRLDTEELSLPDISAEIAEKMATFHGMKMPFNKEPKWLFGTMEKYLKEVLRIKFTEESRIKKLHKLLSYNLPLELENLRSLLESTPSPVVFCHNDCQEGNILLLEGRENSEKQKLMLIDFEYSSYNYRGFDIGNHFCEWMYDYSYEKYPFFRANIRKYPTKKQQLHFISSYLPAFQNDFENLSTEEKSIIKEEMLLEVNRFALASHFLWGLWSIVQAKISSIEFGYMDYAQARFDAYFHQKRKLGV
Assay Readout: pIC50
Expect pIC50 as a plain number equal to -log10 of the molar concentration.

Take a look at these entries with their results.
Chem Smiles	Experimental Target	pIC50
CC1(C)Cc2cnc(N)nc2-c2[nH]nc(C(=O)Nc3cccc(C4OCCCO4)c3)c21	Δ49N-hChoKα (Homo sapiens)	6.46
CC1CCN(C2CCN(C(=O)Cc3csc(NC(=O)c4n[nH]c5c4C(C)(C)Cc4cnc(N)nc4-5)n3)CC2)CC1	Δ49N-hChoKα (Homo sapiens)	8.70
CN1CCC(NC(=O)c2csc(NC(=O)c3n[nH]c4c3C(C)(C)Cc3cnc(N)nc3-4)n2)CC1	Δ49N-hChoKα (Homo sapiens)	7.44

--- query ---
Which pIC50 is listed for CC(C)(C)NC(=O)NC1CCN(C(=O)Cc2csc(NC(=O)c3n[nH]c4c3C(C)(C)Cc3cnc(N)nc3-4)n2)CC1 ?
8.05

* * *

# reported pIC50; entries follow
target: hChoKβ FL (Homo sapiens); construct: hChoKβ full length (FL), corresponding to aminoacids 2-395; GST (N, cleaved yes); PreScission Protease recognition site (N); made in house; host or cells: Escherichia coli BL21pLysS (DE3); test: Biochemical kinase inhibition assay (Kinase-Glo luminescent) on hChoKβ FL; details: recombinant hChoKβ FL 30 nM, ATP 5 μM, choline 20 μM, 60 min rt; read-out: ChoKβ IC50
Expect pIC50 as a plain number equal to -log10 of the molar concentration.

Compound	Numeric Readout
CC1(C)Cc2cnc(N)nc2-c2[nH]nc(C(=O)Nc3ccc(C(=O)N[C@H]4CC[C@H](O)CC4)cc3)c21	5.51

Which pIC50 is listed for CC1(C)Cc2cnc(N)nc2-c2[nH]nc(C(=O)Nc3cccc(CN4CCC(N5CCCCC5)CC4)c3)c21 ?
5.55

What would you report for CC1(C)Cc2cnc(N)nc2-c2[nH]nc(C(=O)Nc3ccc(O)cc3)c21 ?
6.40

* * *

target: hChoKβ FL (Homo sapiens); construct: hChoKβ full length (FL), corresponding to aminoacids 2-395; GST (N, cleaved yes); PreScission Protease recognition site (N); made in house; host or cells: Escherichia coli BL21pLysS (DE3); experiment: Biochemical kinase inhibition assay (Kinase-Glo luminescent) on hChoKβ FL; details: recombinant hChoKβ FL 30 nM, ATP 5 μM, choline 20 μM, 60 min rt; read-out: ChoKβ IC50
Threshold 3 µM. IC50 below it: class 1. IC50 at it or above: class 0.

Please review the following examples before continuing.
Molecule	Group Label
CC1(C)Cc2cnc(N)nc2-c2[nH]nc(C(=O)Nc3nc(CC(=O)NC4CCN(C5CCCCC5)CC4)cs3)c21 [compound 145]	class 1
CC1(C)Cc2cnc(N)nc2-c2[nH]nc(C(=O)Nc3ncc(CC(=O)O)s3)c21 [compound 72]	class 1
Cn1nc(C(=O)Nc2nc(CN3CCC(N4CCCCC4)CC3)cs2)c2c1-c1nc(N)ncc1CC2(C)C [compound 141]	class 0
CC1(C)Cc2cnc(N)nc2-c2[nH]nc(C(=O)Nc3nc(CC(=O)N4CC[C@@H]([N+](C)(C)[O-])C4)cs3)c21 [compound 154]	class 1

Input CC1(C)Cc2cnc(N)nc2-c2[nH]nc(C(=O)Nc3ccc(C(=O)N4CCC(NC(=O)CCCO)CC4)cc3)c21 [compound 53] ; condition: IC50 strictly below 3 µM. Does it hold?
class 0

What would you report for CCOC(=O)Cc1csc(NC(=O)c2n[nH]c3c2C(C)(C)Cc2cnc(N)nc2-3)n1 [compound 33] ?
class 0

What would you report for CC1(C)Cc2cnc(N)nc2-c2[nH]nc(C(=O)Nc3nc(CC(N)=O)cs3)c21 [compound 94] ?
class 1

* * *

Molecular target: hChoKβ FL (Homo sapiens, UniProt Q9Y259)
Construct: hChoKβ full length (FL), corresponding to aminoacids 2-395; GST (N, cleaved yes); PreScission Protease recognition site (N); made in house; host or cells: Escherichia coli BL21pLysS (DE3)
Sequence (Q9Y259 2-395): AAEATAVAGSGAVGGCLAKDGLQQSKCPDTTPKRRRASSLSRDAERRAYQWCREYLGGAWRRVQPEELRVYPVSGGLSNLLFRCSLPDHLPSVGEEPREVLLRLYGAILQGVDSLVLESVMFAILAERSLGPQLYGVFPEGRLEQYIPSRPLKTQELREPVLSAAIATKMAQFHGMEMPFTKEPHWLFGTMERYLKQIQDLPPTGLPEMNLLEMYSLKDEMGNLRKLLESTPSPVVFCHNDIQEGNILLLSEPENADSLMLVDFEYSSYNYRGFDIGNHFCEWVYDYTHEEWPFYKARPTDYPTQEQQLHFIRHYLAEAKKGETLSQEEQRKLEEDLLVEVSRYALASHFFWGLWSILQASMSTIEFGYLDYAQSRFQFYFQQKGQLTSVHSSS
Experiment: Biochemical kinase inhibition assay (Kinase-Glo luminescent) on hChoKβ FL
Conditions: recombinant hChoKβ FL 30 nM, ATP 5 μM, choline 20 μM, 60 min rt; read-out: ChoKβ IC50
Procedure: […] The biochemical activity of compounds against Δ49N-ChoKα and ChoK3 FL were determined using the Kinase-Glo™ Luminescent Kinase Assay (Promega cat. V6711). The assay is based on incubation of the recombinant Δ49N-hChoKα and hChoKβ FL produced in house, 2.2 nM and 30 nM, respectively, with the specific substrates, choline (Sigma-Aldrich-C7017) and ATP, followed by quantification, at the end of reaction time, of the residual not reacted ATP. […]
Assay Readout: IC50 (nM)
Report the figure in nM without appending any unit label.

Take a look at these entries with their results.
Molecule	Unit Of Measurement	IC50
CC(C)=CC(=O)CC(C)(C)NC(=O)Cc1csc(NC(=O)c2n[nH]c3c2C(C)(C)Cc2cnc(N)nc2-3)n1 [compound 220]	nM	1380
CN1CCC(NC(=O)Cc2csc(NC(=O)c3n[nH]c4c3C(C)(C)Cc3cnc(N)nc3-4)n2)CC1 [compound 86]	nM	1390
CC1(C)CCN(C2CCN(C(=O)Cc3csc(NC(=O)c4n[nH]c5c4C(C)(C)Cc4cnc(N)nc4-5)n3)CC2)CC1 [compound 218]	nM	254
CC1(C)Cc2cnc(N)nc2-c2[nH]nc(C(=O)Nc3ncc(CC(=O)N4CCC(N5CCCCC5)CC4)s3)c21 [compound 75]	nM	1750

Which IC50 is listed for CC1(C)Cc2cnc(N)nc2-c2[nH]nc(C(=O)Nc3cccc(C(=O)NC4CCCCC4)c3)c21 [compound 25] ?
625

What would you report for Cc1csc(NC(=O)c2n[nH]c3c2C(C)(C)Cc2cnc(N)nc2-3)n1 [compound 32] ?
1090

What would you report for CN1CCN(c2ccc(NC(=O)c3n[nH]c4c3C(C)(C)Cc3cnc(N)nc3-4)cc2)CC1 [compound 6] ?
317

* * *

target: hChoKβ FL (Homo sapiens); construct: hChoKβ full length (FL), corresponding to aminoacids 2-395; GST (N, cleaved yes); PreScission Protease recognition site (N); made in house; host or cells: Escherichia coli BL21pLysS (DE3); assay: Biochemical kinase inhibition assay (Kinase-Glo luminescent) on hChoKβ FL; conditions: recombinant hChoKβ FL 30 nM, ATP 5 μM, choline 20 μM, 60 min rt; read-out: ChoKβ IC50
pIC50: −log10 of the molar value.
Param threshold (6) applies to pIC50; output 1.0 when value >= threshold, 0.0 when value < threshold.

Molecule	Group Label
CNc1ncc2c(n1)-c1[nH]nc(C(=O)Nc3nc(CC(=O)N4CCC(N5CCCCC5)CC4)cs3)c1C(C)(C)C2 [compound 121]	0.0

Decide: is the reported value of pIC50 for CC1(C)Cc2cnc(N)nc2-c2[nH]nc(C(=O)Nc3ncc(C(=O)O)s3)c21 [compound 82] equal to or greater than 6?
0.0

What would you report for CC1CCN(C2(C)CCN(C(=O)Cc3csc(NC(=O)c4n[nH]c5c4C(C)(C)Cc4cnc(N)nc4-5)n3)CC2)CC1 [compound 227] ?
1.0

What would you report for COc1ccc2nc(NC(=O)c3n[nH]c4c3C(C)(C)Cc3cnc(N)nc3-4)sc2c1 [compound 63] ?
1.0

What would you report for CN(C)C1CCN(Cc2ccc(NC(=O)c3nn(C)c4c3C(C)(C)Cc3cnc(N)nc3-4)cc2)CC1 [compound 117] ?
0.0

* * *

target: Δ49N-hChoKα (Homo sapiens); construct: cDNA fragment 362-1534, corresponding to aminoacids 50 457; GST (N, cleaved yes); PreScission Protease recognition site (N); made in house; host or cells: Escherichia coli BL21pLysS (DE3); experiment: Biochemical kinase inhibition assay (Kinase-Glo luminescent) on Δ49N-hChoKα; conditions: recombinant Δ49N-hChoKα 2.2 nM, ATP 5 μM, choline 5 μM, 60 min rt; read-out: ChoKα IC50
Assay Readout: log10 IC50 (log10 of the value in nM)
The common logarithm of IC50 in nM is what is listed.

Take a look at these entries with their results.
Molecule	Experimental Target	log10 IC50
CC1(C)Cc2cnc(N)nc2-c2[nH]nc(C(=O)Nc3nc(COC4CCN(C5CCCCCC5)CC4)cs3)c21 [compound 209]	Δ49N-hChoKα (Homo sapiens)	0.70
CC(C)(C)OC(=O)NC1CCN(Cc2cccc(NC(=O)c3n[nH]c4c3C(C)(C)Cc3cnc(N)nc3-4)c2)CC1	Δ49N-hChoKα (Homo sapiens)	2.75
CN(C)[C@@H]1CCN(Cc2csc(NC(=O)c3nn(C)c4c3C(C)(C)Cc3cnc(N)nc3-4)n2)C1	Δ49N-hChoKα (Homo sapiens)	2.77
CN(C)[C@@H]1CCN(Cc2csc(NC(=O)c3n[nH]c4c3C(C)(C)Cc3cnc(N)nc3-4)n2)C1	Δ49N-hChoKα (Homo sapiens)	2.55
CC1(C)Cc2cnc(N)nc2-c2[nH]nc(C(=O)Nc3ncc[nH]3)c21	Δ49N-hChoKα (Homo sapiens)	2.74
CC1(C)Cc2cnc(N)nc2-c2[nH]nc(C(=O)Nc3cccc(C(=O)O)c3)c21	Δ49N-hChoKα (Homo sapiens)	2.81
CC(C)(C)OC(=O)NC1CCN(C(=O)c2ccc(NC(=O)c3n[nH]c4c3C(C)(C)Cc3cnc(N)nc3-4)cc2)CC1	Δ49N-hChoKα (Homo sapiens)	2.04
CC1(C)Cc2cnc(N)nc2-c2[nH]nc(C(=O)Nc3nc(CC(=O)N4CCC(N)CC4)cs3)c21	Δ49N-hChoKα (Homo sapiens)	1.40
CC1(C)Cc2c(C(=O)Nc3nc(COC4CCN(C5CCCCCC5)CC4)cs3)n[nH]c2-c2nc(N)ncc21	Δ49N-hChoKα (Homo sapiens)	0.90
CC1(C)Cc2cnc(N)nc2-c2[nH]nc(C(=O)Nc3ccc(C(=O)N4CCC(N5CCCC5)CC4)cc3)c21	Δ49N-hChoKα (Homo sapiens)	1.62

--- query ---
Which log10 IC50 is listed for CC1(C)Cc2cnc(N)nc2-c2[nH]nc(C(=O)Nc3ccc(C(=O)NC4CCCCC4)cc3)c21 ?
1.88
